# TEST_SYSTEM: CDK4/cyclin D1 (Homo sapiens (Human), UniProt P11802)
# Sequence (P11802 whole entry): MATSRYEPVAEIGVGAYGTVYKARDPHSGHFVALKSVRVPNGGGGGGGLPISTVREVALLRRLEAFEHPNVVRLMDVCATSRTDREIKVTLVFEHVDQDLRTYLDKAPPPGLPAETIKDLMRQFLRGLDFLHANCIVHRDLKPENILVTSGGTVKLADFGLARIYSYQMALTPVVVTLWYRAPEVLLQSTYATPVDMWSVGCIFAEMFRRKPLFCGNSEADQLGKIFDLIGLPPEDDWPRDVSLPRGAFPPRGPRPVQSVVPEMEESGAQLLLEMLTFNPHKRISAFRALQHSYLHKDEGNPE
# Sequence (P24385 whole entry partner): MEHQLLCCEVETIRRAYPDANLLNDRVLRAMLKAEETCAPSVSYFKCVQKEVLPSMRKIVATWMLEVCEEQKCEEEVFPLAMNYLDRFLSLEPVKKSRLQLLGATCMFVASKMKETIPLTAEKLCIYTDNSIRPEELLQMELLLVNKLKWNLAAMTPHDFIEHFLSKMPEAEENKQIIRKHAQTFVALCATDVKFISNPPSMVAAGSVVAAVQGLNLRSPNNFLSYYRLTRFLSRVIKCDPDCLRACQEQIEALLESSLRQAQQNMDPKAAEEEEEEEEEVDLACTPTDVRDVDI
# TEST_PROTOCOL: Biochemical kinase inhibitory assay, CDK4/cyclin D1
# ASSAY_CONDITIONS: recombinant CDK4/cyclin D1; in the presence of 10 μM ATP
pIC50: −log10 of the molar value.
PARAMETER_MEASURED: pIC50

pIC50 measured on CCN1CCN(c2ccc(Nc3ncc4ccc5ncn(C(C)C)c5c4n3)nc2C)CC1 = 8.00 to 8.70

pIC50 measured on CC(C)n1cnc2ccc3cnc(Nc4ccc(N5CCC(O)CC5)cn4)nc3c21 = 7.30 to 8.00

pIC50 measured on Cc1cc2ncn(C(C)C)c2c2nc(Nc3ccc(N4CCNCC4)cn3)ncc12 = 7.00 to 7.30

pIC50 measured on CCN1CCN(c2ccc(Nc3ncc4ccc5ncn(C(C)C)c5c4n3)nc2)CC1 = > 8.70

pIC50 measured on CC(C)n1cnc2ccc3cnc(Nc4ccc(N5CCC6(CCC(=O)N6)CC5)cn4)nc3c21 = 7.30 to 8.00

pIC50 measured on CCn1cnc2ccc3cnc(Nc4ccc(N5CCNCC5)cn4)nc3c21 = 7.30 to 8.00

pIC50 measured on CC(C)n1cnc2ccc3cnc(Nc4ccc(N5CCC6(CC5)CNC6)cn4)nc3c21 = 7.30 to 8.00

pIC50 measured on Cc1cc(Nc2ncc3ccc4ncn(C5CC5)c4c3n2)ncc1N1CCOCC1 = 7.30 to 8.00

pIC50 measured on CC(C)n1cnc2ccc3cnc(Nc4ccc(N5C[C@@H](C)O[C@@H](C)C5)cn4)nc3c21 = 8.00 to 8.70

pIC50 measured on CC(C)n1cnc2ccc3cnc(Nc4cc(F)c(N5CCNCC5)cn4)nc3c21 = 7.30 to 8.00

pIC50 measured on CC(C)n1cnc2ccc3cnc(Nc4ccc(N5CCCNCC5)cn4)nc3c21 = 7.30 to 8.00

pIC50 measured on CC(C)n1cnc2ccc3cnc(Nc4ccc(N5C[C@@H](C)N[C@@H](C)C5)cn4)nc3c21 = 8.00 to 8.70

pIC50 measured on COc1cc(OCCN(C)C)ccc1Nc1ncc2ccc3ncn(C(C)C)c3c2n1 = 7.00 to 7.30

pIC50 measured on c1cc(Nc2ncc3ccc4ncn(C5CC5)c4c3n2)ncc1N1CCOCC1 = 7.30 to 8.00

pIC50 measured on Cc1cc(Nc2ncc3cc(Br)c4ncn(C(C)C)c4c3n2)ncc1N1CCNCC1 = 8.00 to 8.70

pIC50 measured on CCn1cnc2ccc3cnc(Nc4ccc(N5CCN(C)CC5)cn4)nc3c21 = 7.30 to 8.00

pIC50 measured on c1cc(Nc2ncc3ccc4ncn(C5CCC5)c4c3n2)ncc1N1CCNCC1 = 7.30 to 8.00

Where do these numbers come from? They come from patent US12428423B2.
